Experiment: yeast display, Sf9 membrane polyspecificity reagent, FACS + sequencing; frameworks hold sequencing errors
assay_readout: polyreactivity (PSR sort gate)

Would you please look over these solved cases?
QVQLVESGGGLVQAGGSLRLSCAASGFIFYHYAMGWYRQAPGKERELVAAISWNGGRTYYADSVKGRFTISRDNAKNTVYLQMNSLKPEDTAVYYCAAPVLTSDYTLDSYYWGQGTQVTVSS ... high polyreactivity
QVQLVESGGGLVQAGGSLSLSCAASVYIFLVYAMGWYRQAPGKERELVAAISSGGSTYYADSVKGRFTISRDNAKNTVYLQMNSLKPEDTAVYYCAKAGLALYAFRDDYWGQGTQVTVSS ... low polyreactivity
QVQLVESGGGLVQAGGSLRLSCAASGIIFYGNAMGWYRPAPGKERELVAAISWTTDSTYADSVKGRFTISRDNAKNTVYLQMNSLKPEDTAVYYCNARNGSEFLANDLFTHEYDYWGQGTQVTVSS ... low polyreactivity
QVQLVESGGGLVQAGGSLRLSCAASGSTFVKNTMGWYRQAPGKERELVAAIRSSGGSTYYADSVKGRFTISRDNAKNTVYLQMNSLKPEDTAVYYCNKVLQASRSKYYYWGQGTQVTVSS ... high polyreactivity
QVQLVESGGGLVQAGGSLRLSCAASGSIFRIYAMGWYRHAPGKERELVAAITGRGGSTYYADSVKGRFTISRDNEKNTVYLQMNSLKPEDTAVYYCAAEERYAYRYDYWGQGTQVTVSS ... high polyreactivity

Q: So what's the measured polyreactivity (PSR sort gate) for this one? QVQLVESGGGLVQAGGSLRLSCAASGSTFTYNAMGWYRQAPGKERELVAAISWSGGRTYYADSVKGRFTISRDNATNTVYLQMNSLKPEDTAVYSCAAKYRYSTYSFPYDYWGQGTQVTVSS
A: high polyreactivity

Q: Need polyreactivity (PSR sort gate) of QVQLVESGGGIVQAGGSLRLSCADSGRTFGYYGMGWYRQAPGKERELVASINFSSGSTFYADSVKGRFTISRDNAKNTVYLQMNSLKPEDTAVYYCAGRAKAVRTYAYNYWGQGTQVTVSS , thanks.
A: low polyreactivity

Q: Sample QVQLVESGGGLVQAGGSLRLSCAASGRTFSLNAMGWYRPAPGKEREFVAAISSTGGSTYYADSVKGRFTISRDNAKNTVYLQMNSLKPEDTAVYYCAKRSVYRTAQGRYSVAYDYWGQGTQVTVSS — what was its polyreactivity (PSR sort gate)?
A: high polyreactivity

Q: Item under review: QVQLVESGGGLVQAGGSLRLSCAASGRTLRYYDMGWYRQEPGKEREIVAAISWSGVSTYYADSVKGRFTISRDNAKNTVYLQMNSMQPEDTAVYYCAVGYVLTGVFEARFDYWGQGTLVTVSS . Reported polyreactivity (PSR sort gate)?
A: high polyreactivity

Q: Could you share which polyreactivity (PSR sort gate) value was measured for QVQLVESGGGLVQAGGSLRLSCAASGFTVGYAMGWYRQAPGKEREFVAAITRGGGTRTSYADSVKGRFTISRDNAKNTVYLQMNSLKPEDTAVSYCAARRWWSPRTQYDYWGQGTQVTVSS ?
A: high polyreactivity

Q: May I ask what polyreactivity (PSR sort gate) has been recorded for QVQLQESGGGLVQAGGSLRLSCAASGPISRRSTMGWYRQAPGKERELVTAITRGTNTNYADSVKGRFTISRDNAKNTEYLQMNSLKPEDTAVFYCAAYGVLKPSRGDAVFHRYWGQGTQVTVSS ?
A: low polyreactivity
